# Test system: PC-3 prostate
# Method Description: NCI-60 one-dose screen, 48 h (100 = growth as untreated, 0 = no growth, -100 = all killed)
# Experimental Parameters: 10 µM unless noted
About 83,000 compounds went through this panel and 20% of them were active in at least one assay; those are over-represented in the sample as a whole.
growth values by entry
Value Kind: growth (%)

• C=C1CCC2C3(C)COC(c4ccccc4)OC3CCC2(C)C1/C=C/C1=CCOC1=O (stereo not drawn) = 26.6
• COc1cc(C(=O)/C=C/c2ccc3nc(-c4cc(F)cc(F)c4)sc3c2)cc(OC)c1OC = 95.1
• CC(C)(C)Nc1c(-c2cccs2)nc2ncccn12 = 95
• O=[N+]([O-])c1ccc(Sc2ncccn2)c([N+](=O)[O-])c1 = 32.9
• Clc1ccc2c(NC3CCC(NC4CCCCC4)CC3)ccnc2c1 (stereo not drawn) = 59.2
• CC(C)(C)n1cc(-c2ccnc(NCCNS(=O)(=O)c3ccc(C(F)(F)F)cc3)c2)c(-c2cccc(O)c2)n1 = 25.4
• CC(NNC(C)c1ccccc1)c1ccccc1 (stereo not drawn) = 94
• CC(C)(C)NCCC(O)c1cc2c(Cl)cc(Cl)cc2c2cc(C(F)(F)F)ccc12 (stereo not drawn) = -92.3
• O=C(NS(=O)(=O)c1ccccc1)n1cc(-c2ccncc2)c(-c2ccc(Cl)c(O)c2)n1 = 93.4
• CCOC(=O)c1ccc2c(c1)c1c(C)c3cccnc3c(C)c1n2C = 58.3
• Cc1ccc(S(=O)(=O)NCCNc2nccc(-c3c(-c4cccc(N)c4)nc4sccn34)n2)cc1 = 84.5
• O=C(/C=C/c1ccccc1)c1cccc(O)c1 = 103
• N=C(N)c1ccc(-c2ccc(-c3ccc(-c4cccs4)s3)s2)cc1 = 89
• c1ccc(-c2nc(N3CCNCC3)c3nc(-c4ccccc4)oc3n2)cc1 = -62.3
• O=C(Nc1ccncc1)C(=O)c1cn(S(=O)(=O)c2ccc(Oc3ccccc3)cc2)c2ccccc12 = 85.7
• CC(C)(C)N1CCC1C(N)=O (stereo not drawn) = 95.3
• CCCCCCCCCCCC(=O)NCCC[N+](C)(C)CC(=O)[O-] = 31.8
• S=c1[nH]nc(-c2cc3ccc2CCc2ccc(cc2)CC3)n1-c1ccccc1 = 83.9
• Cc1ccc(S(=O)(=O)C2=C3C(=C(c4ccccc4)c4ccccc43)CN(S(=O)(=O)c3ccc(C)cc3)C2)cc1 = 30.1
• COc1cc(C2CC(c3ccc4c(c3)OCO4)=NN2C(C)=O)cc(OC)c1OC (stereo not drawn) = 43.8
• COc1ccc(-c2nc(/C=C3/C(=O)Nc4ccc(F)cc43)c3ccccn23)cc1 = 108
• CN(C)c1nc2c(N)ncnc2n1C1OC(CO)C(O)C1O (stereo not drawn) = 94.2
• COc1ccc2c(c1)[nH]c(=O)c1c3cccc(F)c3cn21 = 2.38
• O=C1c2c(Cl)c(Cl)c(Cl)c(Cl)c2C(=O)C2(Cl)CC=CCC12Cl (stereo not drawn) = -55.4
• Cc1ccc(N2CCN(C(C)C(N)=O)CC2)cc1 (stereo not drawn) = 105
• O=[N+]([O-])c1cc(S(=O)(=O)Oc2ccccc2)ccc1Cl = 25.5
• O=S(=O)(NCCNc1nccc(-c2c(-c3ccc(F)cc3)nc3sccn23)n1)c1ccc(F)cc1 = 75.3
• O=C(c1ccccc1)C1OC1c1ccc([N+](=O)[O-])cc1 (stereo not drawn) = 63.2
• COc1ccc(Cn2cc3c(c2-c2cc(OC)c(OC)c(OC)c2)CCc2cnoc2-3)cc1 = 25.7
• CCN(CC)CCC(CNc1ccnc2cc(Cl)ccc12)c1ccccc1 (stereo not drawn) = 56.5
• COc1cc(-c2ncn(/C=C\C(=O)OC(C)C)n2)cc(C(F)(F)F)c1 = 18.2
• Cc1ccc2[nH]c(=O)c3c(c2c1)Oc1ncn2nc(-c4ccco4)nc2c1C3c1ccc(Cl)cc1 (stereo not drawn) = 93.7
• Cc1ccc(-c2nc(C#N)c(S(=O)(=O)n3nc(-c4ccccc4)cc3N)o2)cc1 = 101
• CCCCCCCCCCCCCCCCCCNC(=O)[C@H]1CSC(c2cccs2)N1 (stereo partly drawn) = 38.5
• NNc1cccc(/C=C/c2ccccc2)cc1=O = 61.3
• COc1ccc(C(=O)N2NC(=O)/C(=C/c3ccc(F)cc3)N=C2c2ccccc2)cc1 = 89.1
• NC(N)=Nc1nc2ccccc2o1 = 57.6
• O=C(Oc1ccccc1[N+](=O)[O-])C1CCCN1C(=O)OCc1ccccc1 (stereo not drawn) = 97.3
• O=C(O)C1CCCCN1c1nc(Cl)nc(Cl)n1 (stereo not drawn) = 99.3
• Cn1ncc2c(Sc3ccc(Cl)cc3)ncnc21 = 78.1
• O=[N+]([O-])c1ccc(OCCCOc2ccccc2)cc1 = 94.3
• COc1cc2c(cc1O)CCN1C[C@@H](CC(C)C)[C@@H](O)C[C@@H]21 = 86.3
• Nc1cccc(-c2nc3sccn3c2-c2ccnc(NCCCNS(=O)(=O)c3cccc4ccccc34)n2)c1 = 31.2

---

# Test system: OVCAR-3 ovarian
# Method Description: NCI-60 one-dose screen, 48 h (100 = growth as untreated, 0 = no growth, -100 = all killed)
# Experimental Parameters: 10 µM unless noted
# Procedure: Growth inhibition of the OVCAR-3 human tumor cell line is measured as a screen for anti-cancer activity. Cells are grown in 96 well plates and exposed to the test compound for 48 hours. Compounds are tested at a single concentration, which is 10^-5 M for most compounds. The reported endpoint is percent growth (GI% or GIPRCNT), where numbers from 0 - 100% represent growth inhibition, and numbers from -100% - 0 represent cell death. For example, a value of 40 represents 60% growth inhibition. […]
About 83,000 compounds went through this panel and 20% of them were active in at least one assay; those are over-represented in the sample as a whole.
growth values, listed per item
Value Kind: growth (%)

* CCCCCc1cc[n+](CC(=O)c2ccc([N+](=O)[O-])cc2)cc1 | 58.8
* COc1ccc(-c2c(N)n[nH]c2-c2cc(OC)c(OC)c(OC)c2)cc1 | -36.1
* COc1ccc(/C=C2\N=C(c3ccccc3)N(C(=O)c3ccccc3O)NC2=O)cc1 | 118
* C=C[C@@H]1C[C@@H]2Cc3cc(Cl)ccc3N1O2 | 109
* COC(=O)c1nc(-c2ccccc2)oc1S(=O)(=O)N1CCN(c2cccc(Cl)c2)CC1 | 69.2
* N#Cc1c(Nc2ccccc2)nc2n(c1=O)-c1ccccc1Sc1ccccc1-2 | 69.4
* C=C1CCC2C(C)(CO)C(O)CCC2(C)C1C/C=C1/C(=O)OCC1Oc1ccccc1C (stereo not given) | 34.3
* COC(=O)c1cccc2c1N(C)c1c(cccc1C(=O)OC)CC2 | 102
* O=C(CSc1nc2ccccc2[nH]1)c1ccc(N2CCOCC2)cc1 | 106
* COc1ccc(-c2cnoc2-c2ccc(OC)cc2O)cc1 | -11.3

---

# growth values compiled below
# Tested on: NCI-H460 lung
# Method Description: NCI-60 one-dose screen, 48 h (100 = growth as untreated, 0 = no growth, -100 = all killed)
# Experimental Parameters: 10 µM unless noted
This is part of a sample that, as a whole, favours compounds with a hit. Of some 83,000 tested, about 20% had one in any assay. Calls of active or inactive are those of the source. How the source made its calls: active means growth percent below 10; inactive means the rest.
Value Kind: growth

• CNc1ccc(Br)c2c1C(=O)c1ccccc1C2=O = 105% (inactive)
• Oc1ccc(Cl)cc1-c1cc(-c2ccc(F)cc2)n[nH]1 = 42.5% (inactive)
• COc1ccc(C(=O)c2cc(OC)c(OC)c(OC)c2OC)cc1O = 13.7% (inactive)
• COc1cccc(CC(C)=C(c2ccc(OCCN3CCCCC3)cc2)c2ccc(OCCN3CCCCC3)cc2)c1 = -73.3% (active)
• COc1ccc(C(=O)N2NC(=O)/C(=C/c3ccc(F)cc3)N=C2c2ccccc2)cc1 = 104% (inactive)
• COC(=O)[C@]12CC[C@@H](C)[C@H](C)[C@@H]1C1=CC[C@@H]3[C@@]4(C)C(C=O)=C[C@@](C)(COC(=O)c5ccco5)[C@@H]4[C@H](O)C[C@@]3(C)[C@]1(C)CC2 = -59.6% (active)
• Cc1ccc(NS(=O)(=O)c2cc(C)ccc2C)cc1 = 14.4% (inactive)
• COc1ccc(-n2c(=O)sc3c(Cl)nc(C)nc32)c(OC)c1 = 57.4% (inactive)
• O=C(O)Cc1cccc(=O)c(O)c1C(=O)O = 124% (inactive)
• CC(C)CSc1nc(NN)c(C#N)c(-c2ccc(F)cc2)n1 = 52.1% (inactive)
• Cc1[nH]c2ccc(F)cc2c1CCNC(=O)C1CCN(C(=O)c2ccccc2)CC1 = 101% [25 µM] (inactive)
• c1cc(C2=N[C@@H]3c4ccccc4C[C@@H]3O2)nc(C2=N[C@@H]3c4ccccc4C[C@@H]3O2)c1 = 109% (inactive)
• C=C1C(=O)O[C@H]2[C@H]1CC/C(Cn1cc(CNC(=O)Cc3cn(C(=O)c4ccc(Cl)cc4)c4ccc(OC)cc34)nn1)=C\CC[C@@]1(C)O[C@@H]21 = 88.5% (inactive)
• CC(C)(C)n1cc(-c2ccnc(NCCNS(=O)(=O)c3ccc(C(F)(F)F)cc3)c2)c(-c2cccc(O)c2)n1 = 21.2% (inactive)
• COc1ccc(N2CCN(Cc3cc(C(=O)/C=C/c4c[nH]c5ccccc45)ccc3O)CC2)cc1 = 106% (inactive)
• CCOC(=O)CN1/C(=N/c2sc3c(c2C(=O)OCC)CCN(C(=O)OCC)C3)SC(=O)/C1=C\C(=O)OC = 99.9% (inactive)
• CCOC(=O)c1ccc2c(c1)c1c(C)c3cccnc3c(C)c1n2C = 22.5% (inactive)
• O=S(=O)(NCCNc1nccc(-c2c(-c3ccc(O)cc3)nc3sccn23)n1)c1cccc2ccccc12 = 106% (inactive)
• COc1ccc(S(=O)(=O)Nc2cc(/C=C\c3cc(OC)c(OC)c(OC)c3)cc(OC)c2OC)cc1 = 8.41% (active)
• CCc1ccc(-c2ccc(=O)n(-c3ccc(S(N)(=O)=O)cc3)n2)cc1 = 12.6% (inactive)
• NC(N)=N/N=C/c1ccc(-c2ccc(-c3cc(Cl)cc(Cl)c3)s2)cc1 = -35.7% (active)
• O=[N+]([O-])c1ccc(Sc2ncccn2)c([N+](=O)[O-])c1 = 95.4% (inactive)
• O=Nc1c(-c2cccc([N+](=O)[O-])c2)nc2ncccn12 = 101% (inactive)
• C/C(=C\c1ccc(OCC(=O)O)c(Cl)c1Cl)[N+](=O)[O-] = 110% (inactive)
• COc1ccc2c(c1)cn1c3ccc(OC)cc3[nH]c(=O)c21 = -51% (active)
• COc1ccc(/C=N\NC(=O)CN2CCN(c3cc4c(cc3F)c(=O)c(C(=O)N/N=C/c3ccc(OC)c(OC)c3)cn4C3CC3)CC2)cc1OC = 3.65% (active)
• N=C(N)c1ccc(-c2ccc(-c3ccc(-c4cccs4)s3)s2)cc1 = 21.7% (inactive)
• CN1CCN(Cc2ccc(NC(=O)c3nc4ccc5[nH]ncc5c4c4c3CCC4)cc2C(F)(F)F)CC1 = -84.2% (active)
• COc1ccc(-c2nc(N3CCCC3=O)sc2Br)cc1OC = 108% (inactive)
• C[n+]1c(/C=C/c2c(O)ccc3ccccc23)ccc2ccccc21 = 9.44% (active)
• COc1ccc2c(c1)[nH]c(=O)c1c3cc(OC)ccc3cn21 = -33% (active)
• Fc1ccccc1-c1nc(-c2nc3cc(Cl)c(Cl)cc3[nH]2)c2ccccn12 = 57.3% (inactive)
• O=[N+]([O-])c1cccc(-c2nc3sccn3c2-c2ccnc(NCCCNS(=O)(=O)c3ccc(Cl)cc3)n2)c1 = 57.4% (inactive)
• Cc1ccc(S(=O)(=O)n2cc(C(=O)C(=O)N3CCOCC3)c3ccccc32)cc1 = 113% (inactive)
• COc1ccc(Nc2nn3c(-c4ccccc4)cc(-c4ccccc4)nc3c2C(N)=O)c(OC)c1 = 20.3% (inactive)
• O=c1[nH]c(NCc2ccccc2)nc2nc(Nc3ccc(NC(=S)Nc4ccccc4)cc3)nc(-c3ccc(O)cc3O)c12 = 109% (inactive)
• COc1ccc(-c2c(N)n[nH]c2-c2cc(OC)c(OC)c(OC)c2)cc1 = 6.89% (active)
• c1ccc(Nc2nc(Nc3ccccc3)nc(Nc3ccccc3)n2)cc1 = 78% (inactive)

Data credit: PubChem BioAssay (NCI)
